- target or system: Tyrosine-protein phosphatase non-receptor type 1 (Homo sapiens, UniProt P18031)
- Sequence (P18031 whole entry): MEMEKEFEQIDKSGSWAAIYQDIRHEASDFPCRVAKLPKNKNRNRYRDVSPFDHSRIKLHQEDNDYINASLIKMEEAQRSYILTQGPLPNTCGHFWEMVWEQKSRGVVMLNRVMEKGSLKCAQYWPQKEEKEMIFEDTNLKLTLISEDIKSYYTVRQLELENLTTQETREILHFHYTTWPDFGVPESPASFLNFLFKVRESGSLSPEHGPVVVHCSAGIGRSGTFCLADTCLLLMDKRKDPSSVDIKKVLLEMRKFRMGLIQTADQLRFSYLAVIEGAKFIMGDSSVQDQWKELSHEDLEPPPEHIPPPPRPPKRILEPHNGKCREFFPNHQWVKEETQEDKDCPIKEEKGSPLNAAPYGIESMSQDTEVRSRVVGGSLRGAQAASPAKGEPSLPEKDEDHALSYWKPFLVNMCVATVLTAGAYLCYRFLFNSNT
- procedure text: Competitive inhibition of recombinant human PTP1B using p-NPP as substrate assessed as inhibition constant incubated for 30 mins by Lineweaver-Burk plot analysis
measured metric: Ki (µM)
Entry rule: numbers only, all in µM.

INPUT: Determine its reported Ki: CC1(C)[C@@H](O)CC[C@@]2(C)[C@H]1CC[C@@]1(C)CC3=CC[C@H]4C(C)(C)[C@H](O)CC[C@]4(C)[C@H]3CC[C@@H]12
OUTPUT: 11.9

INPUT: Determine its reported Ki: CC1(C)[C@@H](O)CC[C@@]2(C)[C@H]1CC[C@@]1(C)CC3=CC[C@H]4C(C)(C)[C@@H](O)CC[C@]4(C)[C@H]3CC[C@@H]12
OUTPUT: 12.2

---

Kindly supply the reported IC50 values for the records listed here.
- target or system: Tyrosine-protein phosphatase non-receptor type 1 (Homo sapiens)
- procedure text: Inhibition of recombinant human PTP1B using p-NPP as substrate incubated for 30 mins by absorbance based microplate reader
Entry rule: numbers only, all in µM.

INPUT: Determine its reported IC50: CC1(C)[C@@H](O)CC[C@@]2(C)[C@H]1CC[C@@]1(C)CC3=CC[C@H]4C(C)(C)[C@H](O)CC[C@]4(C)[C@H]3CC[C@@H]12
OUTPUT: 4.65

INPUT: Determine its reported IC50: CC1(C)[C@@H](O)CC[C@@]2(C)[C@H]1CC[C@@]1(C)CC3=CC[C@H]4C(C)(C)[C@@H](O)CC[C@]4(C)[C@H]3CC[C@@H]12
OUTPUT: 7.28
